Below, each entry is listed with its recorded EC50.
# TARGET_DESC: human ER (Homo sapiens, UniProt P03372)
# Sequence (P03372 1-595): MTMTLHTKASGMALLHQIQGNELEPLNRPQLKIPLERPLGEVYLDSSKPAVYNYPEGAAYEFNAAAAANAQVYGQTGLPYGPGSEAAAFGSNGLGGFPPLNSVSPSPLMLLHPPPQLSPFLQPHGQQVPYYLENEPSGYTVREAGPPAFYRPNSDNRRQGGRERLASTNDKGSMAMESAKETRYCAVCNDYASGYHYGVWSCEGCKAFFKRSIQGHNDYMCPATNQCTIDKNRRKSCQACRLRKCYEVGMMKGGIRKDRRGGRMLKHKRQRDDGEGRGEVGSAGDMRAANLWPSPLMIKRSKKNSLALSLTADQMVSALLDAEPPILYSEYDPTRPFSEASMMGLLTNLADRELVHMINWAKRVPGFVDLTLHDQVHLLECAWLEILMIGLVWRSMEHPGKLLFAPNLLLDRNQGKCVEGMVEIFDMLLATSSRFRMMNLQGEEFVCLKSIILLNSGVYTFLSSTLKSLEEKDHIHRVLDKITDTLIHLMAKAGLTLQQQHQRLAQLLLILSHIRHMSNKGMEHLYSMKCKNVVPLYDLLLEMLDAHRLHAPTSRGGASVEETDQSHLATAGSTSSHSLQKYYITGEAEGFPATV
# TEST_DETAILS: ER-CALUX assay, estrogenic activity, U2OS-luc cells
# Assay type: cell-based
# Set-up: host or cells: human U2OS-luc (osteoblastic osteosarcoma) cells
# MEASUREMENT_SETUP: present study; 24 h exposure; read-out: EC50

Recorded EC50, per entry:
# COMPOUND, EC50
measured = [
    ("O=C1c2ccccc2-c2cccc3cccc1c23 [BAO, 7H-benz[de]anthracen-7-one]", "16 µM"),
    ("O=C1c2ccccc2-c2ccc3ccccc3c21 [B[a]FO, 11H-Benzo[a]fluoren-11-one]", "4.8 µM"),
]

# context switch: different compound, same EC50
Q. Value wanted: EC50 (human ER (Homo sapiens, UniProt P03372)) of entry O=C1c2ccccc2-c2cc3ccccc3cc21 [B[b]FO, 11H-benzo[b]fluoren-11-one]
A. 4.8 µM

* * *

# TARGET_DESC: human AR (Homo sapiens)
# Sequence (P10275 whole entry): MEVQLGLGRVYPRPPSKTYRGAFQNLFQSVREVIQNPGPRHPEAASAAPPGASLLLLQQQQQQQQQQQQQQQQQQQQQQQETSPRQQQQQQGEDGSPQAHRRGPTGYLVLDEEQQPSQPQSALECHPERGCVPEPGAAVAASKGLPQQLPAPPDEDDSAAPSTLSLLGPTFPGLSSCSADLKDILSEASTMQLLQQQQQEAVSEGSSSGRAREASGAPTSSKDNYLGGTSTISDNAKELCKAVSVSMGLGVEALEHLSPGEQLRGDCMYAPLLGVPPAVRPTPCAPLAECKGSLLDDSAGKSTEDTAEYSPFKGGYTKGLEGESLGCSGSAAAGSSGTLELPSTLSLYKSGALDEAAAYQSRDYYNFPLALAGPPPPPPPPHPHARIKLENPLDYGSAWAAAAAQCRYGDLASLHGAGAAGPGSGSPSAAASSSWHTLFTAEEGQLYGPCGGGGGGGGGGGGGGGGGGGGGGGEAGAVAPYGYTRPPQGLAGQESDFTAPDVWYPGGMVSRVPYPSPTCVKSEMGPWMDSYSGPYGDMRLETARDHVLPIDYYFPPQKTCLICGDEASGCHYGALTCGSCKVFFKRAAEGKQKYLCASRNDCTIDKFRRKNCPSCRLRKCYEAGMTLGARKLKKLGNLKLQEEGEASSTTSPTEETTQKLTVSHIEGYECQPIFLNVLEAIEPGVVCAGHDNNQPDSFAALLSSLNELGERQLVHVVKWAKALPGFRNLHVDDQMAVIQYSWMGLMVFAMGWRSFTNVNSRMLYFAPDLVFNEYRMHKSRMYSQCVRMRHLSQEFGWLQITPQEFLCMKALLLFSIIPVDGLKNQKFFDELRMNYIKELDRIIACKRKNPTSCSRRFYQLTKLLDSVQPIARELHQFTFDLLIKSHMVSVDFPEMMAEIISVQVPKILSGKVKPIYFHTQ
# TEST_DETAILS: AR-CALUX assay, antiandrogenic (AR antagonistic) activity, U2OS-luc cells
# Assay type: cell-based
# Set-up: host or cells: human U2OS-luc (osteoblastic osteosarcoma) cells
# MEASUREMENT_SETUP: read-out: IC50
pIC50: −log10 of the molar value.
Tag: met if measured pIC50 is not below 6, not met if it is.

Would you please look over these solved cases?
# MOLECULE, LABEL_VALUE
rows = [
    ("O=C1c2ccccc2-c2ccc([N+](=O)[O-])c3cccc1c23 [3-NBAO, 3-nitro-7H-benz[de]anthracen-7-one]", "met"),
    ("O=C1C=Cc2cccc3cccc1c23", "not met"),
    ("O=[N+]([O-])c1cc2c3ccccc3ccc2c2ccccc12", "met"),
    ("O=C1c2ccccc2-c2cc3ccccc3cc21 [B[b]FO, 11H-benzo[b]fluoren-11-one]", "met"),
    ("c1ccc2c3c(ccc2c1)-c1cccc2cccc-3c12 [B[j]FA, benzo[j]fluoranthene]", "met"),
]

Q. I'd appreciate it if you could say whether "O=[N+]([O-])c1ccc2ccc3cccc4ccc1c2c34" has pIC50 at least equal to 6.
A. met

Q. Answer whether pIC50 of c1ccc2c(c1)cc1ccc3cccc4c5ccccc5c2c1c34 [DB[a,l]P, dibenzo[a,l]pyrene] is greater than or equal to 6.
A. not met
